Numbers sourced from ChEMBL document CHEMBL1201862.

tested on: HCT-116; assay: NCI tumour cell line growth inhibition, 48 h
Calls of active or inactive are those of the source. Rule as the data show it: active = GI50 up to about 1.1 µM and inactive = higher.
Outcomes: active, inactive

- molecule: "O=C1CSC(c2ccc(Cl)cc2Cl)N1c1ccc(Oc2ccc(Cl)cc2)c(Cl)c1 (centres undefined)"
  tgt: "HCT-116"
  class-label: "inactive"
- molecule: "CCOC(=O)C1=C(c2ccccc2)N(C)c2ccccc2S1"
  tgt: "HCT-116"
  class-label: "inactive"
- molecule: "COC(=O)c1ncc2c(=O)[nH]c3ccccc3c2c1C(=O)OC"
  tgt: "HCT-116"
  class-label: "inactive"
- molecule: "CO/C=C(/C(=O)OC)c1ccccc1[C@@H]1CC1c1cccc(F)c1 (some centres undefined)"
  tgt: "HCT-116"
  class-label: "inactive"
- molecule: "O=C1NC(=O)/C(=C/c2ccc(S(=O)(=O)N/N=C\\C(O)C(O)C(O)C(O)CO)cc2)N1 (centres undefined)"
  tgt: "HCT-116"
  class-label: "inactive"
- molecule: "CN(C(=O)C1=CCCCCC1)c1ccccc1I"
  tgt: "HCT-116"
  class-label: "inactive"
- molecule: "COc1ccc(C(=O)O)c(Cc2cccc3ccccc23)c1"
  tgt: "HCT-116"
  class-label: "inactive"
- molecule: "FC(F)(F)C1(C(F)(F)F)C2CCC3(CC(F)(F)C(F)(F)S3)C1C2 (centres undefined)"
  tgt: "HCT-116"
  class-label: "inactive"
- molecule: "O=S1(=O)CCN(c2ccccc2CC(c2c[nH]c3ccccc23)c2c[nH]c3ccccc23)CC1"
  tgt: "HCT-116"
  class-label: "inactive"
- molecule: "N#CC(O)CCOCc1ccccc1 (centres undefined)"
  tgt: "HCT-116"
  class-label: "inactive"
- molecule: "CC(C)(/N=N/C(C)(C)C(=O)NCCO)C(=O)NCCO"
  tgt: "HCT-116"
  class-label: "inactive"
- molecule: "CC1(C)OC(=O)[C@@](C)([C@H](O)c2ccccc2)O1"
  tgt: "HCT-116"
  class-label: "inactive"
- molecule: "COc1ccc(-c2cc(=O)c3c(OC)c(O)c(OC)cc3o2)cc1"
  tgt: "HCT-116"
  class-label: "inactive"
- molecule: "Nc1ccn(C2OC(COC(=O)C34CC5CC(CC(C5)C3)C4)C(O)C2O)c(=O)n1 (centres undefined)"
  tgt: "HCT-116"
  class-label: "inactive"
- molecule: "O=C1C=C(Br)c2c(-c3ccccc3)oc3cccc1c23"
  tgt: "HCT-116"
  class-label: "inactive"
- molecule: "Cc1ccc(NC(=O)c2cc3cc(/N=N/c4ccc(Br)cc4)ccc3oc2=O)cc1"
  tgt: "HCT-116"
  class-label: "inactive"
- molecule: "COC(=O)C1CCC(=O)N1C(c1ccc2c(c1)OCO2)c1cc(OC)c(OC)c(OC)c1 (centres undefined)"
  tgt: "HCT-116"
  class-label: "inactive"
- molecule: "O=C1/C(=C/c2cccs2)N=C(c2ccccc2)N1C1Nc2cc3c(cc2S1)NC(N1C(=O)/C(=C/c2cccs2)N=C1c1ccccc1)S3 (centres undefined)"
  tgt: "HCT-116"
  class-label: "inactive"
- molecule: "O=c1cc(-c2ccccc2)[nH]c2cccc(S)c12"
  tgt: "HCT-116"
  class-label: "active"

###

tested on: A498; test: NCI tumour cell line growth inhibition, 48 h
Activity calls are given as the source filed them. Cut-off read from the data, not from the text of the source: active = GI50 up to about 1.1 µM and inactive = higher.
Below is a list of entries, each paired with its recorded GI50 value.

- compound: "O=C(CC(=O)c1cccc2ccccc12)C(=O)Nc1ccc(Cl)cc1"
  GI50: "> 100 µM (inactive)"
- compound: "CSC1NC(c2ccc(Cl)cc2)=C(C#N)C(=O)N1C1OCC(OC(C)=O)C(OC(C)=O)C1OC(C)=O (stereo not given)"
  GI50: "34.8 µM (inactive)"
- compound: "CN(CCN(C)CCN(C)C(=O)Cc1ccc(Cl)c(Cl)c1)CCN1CCCC1"
  GI50: "16.4 µM (inactive)"
- compound: "Cc1ccc(Nc2nnc(-c3ccc4c(c3)OCO4)o2)c(C)c1"
  GI50: "39.6 µM (inactive)"
- compound: "O=C(OC(=C(c1ccccc1)c1ccccc1)N1CCCC1=S)C(c1ccccc1)c1ccccc1"
  GI50: "8.63 µM (inactive)"
- compound: "CN(C(=O)Cc1cc(Cl)c(Cl)cc1NC(=O)CCCN)[C@H]1CCCC[C@@H]1N1CCCC1"
  GI50: "17.3 µM (inactive)"
- compound: "COc1cccc(-c2[nH]c3cc4c(cc3c(=O)c2C(=O)O)OCO4)c1"
  GI50: "34.4 µM (inactive)"
- compound: "COC1=C(C(c2cc(OC)c(OC)c(OC)c2)c2cc3c(cc2OC)OCO3)C(=O)OC1 (stereo not given)"
  GI50: "14.9 µM (inactive)"
- compound: "CNn1c(C)n[nH]c1=O"
  GI50: "> 100 µM (inactive)"
- compound: "CCCCCCNC(=O)C1=C(C)NC(C)=C(C(=O)NCCCCCC)C1"
  GI50: "> 100 µM (inactive)"
- compound: "CCOC(=O)c1nc2ccccc2n(CC)c1=O"
  GI50: "> 100 µM (inactive)"
- compound: "CCCCCCCCCCCCCCCCCc1nc(C#N)c(N)o1"
  GI50: "> 100 µM (inactive)"
- compound: "O=C1c2cccc(NCCCNCCO)c2C(=O)c2cccc(NCCCNCCO)c21"
  GI50: "2.17 µM (inactive)"
- compound: "CC1(C)OCC[C@@H]1[Si](C)(C)C"
  GI50: "30.1 µM (inactive)"
- compound: "C#CCN(Cc1ccc2nc(-c3ccccc3)c(Cl)nc2c1)c1ccc(Cl)c(Cl)c1"
  GI50: "> 100 µM (inactive)"
- compound: "CCOc1ccccc1NC(=O)C(=O)CC(=O)C1=C(C)Nc2ccccc2S1"
  GI50: "> 100 µM (inactive)"
- compound: "Cc1ccc2c(=O)c(C(=O)Nn3c(C)csc3=S)c[nH]c2n1"
  GI50: "> 100 µM (inactive)"
- compound: "FC(F)(F)C1(C(F)(F)F)C2CCC3(CC(F)(F)C(F)(F)S3)C1C2 (stereo not given)"
  GI50: "57 µM (inactive)"
- compound: "CNC(=S)N/N=C1\\C(=O)N(CN2CCOCC2)c2ccc([N+](=O)[O-])cc21"
  GI50: "24.5 µM (inactive)"
- compound: "CC(C)CCCC(C)[C@H]1CCC2[C@@H]3CCC4Nc5c(cnn5-c5ccccc5)C[C@]4(C)C3CC[C@@]21C (stereo not given in full)"
  GI50: "89.5 µM (inactive)"

###

tested on: SK-OV-3; test: NCI tumour cell line growth inhibition, 48 h
Calls of active or inactive are those of the source. Rule as the data show it: active = GI50 up to about 1.1 µM and inactive = higher. Starred links: 1 amine or outer side, 2 acyl side, 3 side chain; linkers in the order of their positions; H or OH if unused. Positions of bridges follow the written chain, without caps; N, C: chain ends. Non-standard residues stand in square brackets, D forms with d. Residues, ends and D or L forms follow the SMILES beside them. ξ: configuration not given here. X11 = CCC(C)C(N[*:1])C(O)CC(=O)O[C@H](C(=O)C(C)C(=O)[*:2])C(C)C; X10 = O=C([C@@H]1CC(O)CN1[*:1])[*:2]; NMeY = CN[C@@H](Cc1ccc(O)cc1)C(=O)O; ξNMeL = CNC(CC(C)C)C(=O)O; ξT = CC(O)C(N)C(=O)O
Outcomes: active, inactive

- compound: "COc1c(-c2nc3ccc(N4CCN(C)CC4)nc3[nH]2)cc(OC)c2c1nc(CCl)n2C"
  class-label: "inactive"
- compound: "O=[N+]([O-])/C=C/c1cn(CCCCCCCCn2cc(/C=C/[N+](=O)[O-])c3ccccc32)c2ccccc12"
  class-label: "inactive"
- compound: "CCC(C)C1NC(=O)C(NC(=O)C(CC(C)C)N(C)C(=O)[C@@H]2CC(O)CN2)C(C)OC(=O)[C@H](Cc2ccc(OC)cc2)N(C)C(=O)[C@@H]2CCCN2C(=O)[C@H](CC(C)C)NC(=O)C(C)C(=O)[C@H](C(C)C)OC(=O)CC1O (some centres not stated) (H-[X10][ξNMeL][ξT][X11]LP[NMeY](Me); ester 3-C)"
  class-label: "active"
- compound: "CC1(C)CC(=O)C2(CC(CSc3ccccc3)C(CS(=O)(=O)c3ccccc3)C2)C(=O)C1 (configuration not stated)"
  class-label: "inactive"
- compound: "CN(CCN(C)CCN(C)C(=O)Cc1ccc(Cl)c(Cl)c1)CCN1CCCC1"
  class-label: "inactive"
- compound: "CCC(=O)OC1CCn2c1nc1c2C(=O)C(C)=C(NC(C)=O)C1=O (configuration not stated)"
  class-label: "inactive"
- compound: "O=C1/C(=C/c2ccccc2)CCC/C1=C\\c1ccccc1"
  class-label: "inactive"

###

system: U-251; assay: NCI tumour cell line growth inhibition, 48 h
Activity calls are given as the source filed them. Cut-off read from the data, not from the text of the source: active = GI50 up to about 1.1 µM and inactive = higher.
Below is a list of entries, each paired with its recorded GI50 value.

- molecule: "CCOP(=O)(OCC)/C(C#N)=C/c1cc(O)ccc1O"
  GI50: "> 100 µM (inactive)"
- molecule: "CCN(CC)c1ccc2cc(C(=O)Nc3nc(C45CC6CC(CC(C6)C4)C5)cs3)c(=O)oc2c1"
  GI50: "> 100 µM (inactive)"
- molecule: "Cn1c(=O)c2c(nc(C(=N)SCC(=O)O)n2C)n(C)c1=O"
  GI50: "95.9 µM (inactive)"
- molecule: "O=C1c2n[nH]nc2C(=O)c2n[nH]nc21"
  GI50: "> 100 µM (inactive)"
- molecule: "CC(=O)NCCCCN(CCCNC(C)=O)C(=O)OCc1ccccc1"
  GI50: "> 100 µM (inactive)"
- molecule: "Cc1ccc(S(=O)(=O)OC(COC(=O)c2ccccc2)C(OS(=O)(=O)c2ccc(C)cc2)C(OS(=O)(=O)c2ccc(C)cc2)C(COC(=O)c2ccccc2)OS(=O)(=O)c2ccc(C)cc2)cc1 (stereo not given)"
  GI50: "> 100 µM (inactive)"
- molecule: "CCOC(=O)C1=C(c2ccccc2)N(C)c2ccccc2S1"
  GI50: "19.8 µM (inactive)"
- molecule: "CC1/C(=N/O)CC(c2ccccc2)N(N=O)C1c1ccccc1 (stereo not given)"
  GI50: "> 100 µM (inactive)"
- molecule: "C/N=C(\\Nc1cccc(C(F)(F)F)c1)SCc1ccc(N=C=S)cc1"
  GI50: "15.8 µM (inactive)"
- molecule: "CN1CCN(Cc2nc3cccc4c3c([n+]2[O-])-c2ccccc2-4)CC1"
  GI50: "20 µM (inactive)"
